# Test system: U2OS
# EXPERIMENT_SUMMARY: Multiplex assay against U2OS
# Assay type: toxicity, cell-based
# CONDITION_INFO: human, 12 h, 10 µM, compound concentration 10 uM, replicate 1

- MOLECULE: "C=C1/C(=C\\C=C2/CCC[C@]3(C)[C@@H]([C@H](C)/C=C/[C@H](C)C(C)C)CC[C@@H]23)C[C@@H](O)C[C@@H]1O [DOXERCALCIFEROL]"
  TARGET_SYSTEM: "U2OS"
  Population Healthy Nuclei (%): 60
- MOLECULE: "COCC(=O)NC/C=C/c1ccc2ncnc(Nc3ccc(Oc4ccc(C)nc4)c(C)c3)c2c1 [CP-724714]"
  TARGET_SYSTEM: "U2OS"
  Population Healthy Nuclei (%): 62
- MOLECULE: "O=C(Nc1ccc(Cl)cc1)Nc1cccc(-c2cccc(N3CCCC3)n2)c1"
  TARGET_SYSTEM: "U2OS"
  Population Healthy Nuclei (%): 65

---

# System: Fibroblast
# EXPERIMENT_SUMMARY: Multiplex assay against human fibroblast
# Format: toxicity, cell-based
# CONDITION_INFO: 12 h, 10 µM, compound concentration 10 uM, replicate 2

- STRUCTURE_SMILES_STRING: "O=C(Cc1ccc(-c2ccc(OCCN3CCOCC3)cc2)cn1)NCc1ccccc1"
  Population Apoptotic (%): "50%"
- STRUCTURE_SMILES_STRING: "O=C(Nc1cccnn1)N1CCC(=Cc2cccc(Oc3ccc(C(F)(F)F)cn3)c2)CC1"
  Population Apoptotic (%): "25%"
- STRUCTURE_SMILES_STRING: "O=C(Nc1ccc(-n2nc(-c3cccnc3)cc2C(F)(F)F)cn1)c1ccc(-c2ccccc2)c(F)c1"
  Population Apoptotic (%): "0%"
- STRUCTURE_SMILES_STRING: "Cc1ccc(C(=O)Nc2cccc(C(F)(F)F)c2)cc1Nc1nc(-c2cccnc2)nc2c1cnn2C"
  Population Apoptotic (%): "61%"
- STRUCTURE_SMILES_STRING: "COc1cc(N2CCN(C)CC2)ccc1Nc1ncc2c(n1)N(C)c1ccccc1C(=O)N2C"
  Population Apoptotic (%): "66%"

---

# Tested on: Fibroblast
# EXPERIMENT_SUMMARY: Multiplex assay against human fibroblast
# Type: toxicity, cell-based
# CONDITION_INFO: 12 h, 10 µM, compound concentration 10 uM, replicate 1
Listing of entries alongside the reported Population Mitotic Cells (%).

- STRUCTURE_SMILES_STRING: "O=C(Nc1cccnn1)N1CCC(=Cc2cccc(Oc3ccc(C(F)(F)F)cn3)c2)CC1"
  UOM: "%"
  Population Mitotic Cells (%): 26
- STRUCTURE_SMILES_STRING: "COc1cccc2cc(-c3nc([C@H]4CC[C@H](C(=O)O)CC4)n4ncnc(N)c34)[nH]c12"
  UOM: "%"
  Population Mitotic Cells (%): 27
- STRUCTURE_SMILES_STRING: "CCN(CC)S(=O)(=O)Nc1cccc(-c2ccc3c(NC(=O)C4CC4)n[nH]c3c2)c1"
  UOM: "%"
  Population Mitotic Cells (%): 18

---

# System: HEK-293T
# EXPERIMENT_SUMMARY: Multiplex assay against HEK293T;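 for Population Tubulin-Different-Phenotype (%): share of the cells with healthy nuclei that show this phenotype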
# Format: toxicity, cell-based
# CONDITION_INFO: human, 24 h, 1 µM, compound concentration 1 uM, replicate 2
MEASURED_METRIC: Population Tubulin-Different-Phenotype (%)

- STRUCTURE_SMILES_STRING: "O=C(Nc1ccc(Cl)cc1)Nc1cccc(-c2cccc(N3CCCC3)n2)c1"
  VALUE_MEASURED: 28
- STRUCTURE_SMILES_STRING: "Cc1ccc(C(=O)Nc2cccc(C(F)(F)F)c2)cc1Nc1nc(-c2cccnc2)nc2c1cnn2C"
  VALUE_MEASURED: 97
- STRUCTURE_SMILES_STRING: "Cc1cc(C)c(S(=O)(=O)N(Cc2ccc(-c3cccc(S(C)(=O)=O)c3)cc2)Cc2ccc(C(F)(F)F)o2)c(C)c1"
  VALUE_MEASURED: 29
- STRUCTURE_SMILES_STRING: "O=C(Nc1ccc(-c2ccnc(Nc3ccc(N4CCOCC4)cc3)n2)cc1)[C@@H]1CCCN1"
  VALUE_MEASURED: 46
- STRUCTURE_SMILES_STRING: "CCNc1cc(N[C@H]2CC[C@H](O)CC2)nc(Nc2ccc3c(ccn3Cc3ccccc3)c2)n1"
  VALUE_MEASURED: 75
- STRUCTURE_SMILES_STRING: "COc1ccc(S(=O)(=O)N(CCO)c2ccccc2CN(C)C/C=C/c2ccc(Cl)cc2)cc1.O=P(O)(O)O"
  VALUE_MEASURED: 77

---

Listing of entries alongside the reported Population Healthy Nuclei (%).
# Tested on: HEK-293T
# EXPERIMENT_SUMMARY: Multiplex assay against HEK293T
# Assay type: toxicity, cell-based
# CONDITION_INFO: human, 24 h, 1 µM, compound concentration 1 uM, replicate 2
MEASURED_METRIC: Population Healthy Nuclei (%)

- STRUCTURE_SMILES_STRING: "Cl.O=C(c1ccc(Nc2nccc(-c3cc4ccccc4s3)n2)cc1)N1CCC(N2CCCC2)CC1"
  MEASURED_METRIC: "Population Healthy Nuclei (%)"
  VALUE_MEASURED: "82%"
- STRUCTURE_SMILES_STRING: "CCCS(=O)(=O)c1nc(NC2CC2)cc(-c2ccc3c(ccn3C3CC(C)(C)NC(C)(C)C3)c2)n1"
  MEASURED_METRIC: "Population Healthy Nuclei (%)"
  VALUE_MEASURED: "34%"
- STRUCTURE_SMILES_STRING: "CNC(=O)c1ccc(Nc2nc(OC3CCCC3)c3c(-c4ccc5nc(C)oc5c4)c[nH]c3n2)c(OC)c1"
  MEASURED_METRIC: "Population Healthy Nuclei (%)"
  VALUE_MEASURED: "80%"
- STRUCTURE_SMILES_STRING: "CCOc1cc(C(=O)N2CCC(N3CCN(C)CC3)CC2)ccc1Nc1ncc2c(n1)N(C1CCCC1)c1ccccc1C(=O)N2C"
  MEASURED_METRIC: "Population Healthy Nuclei (%)"
  VALUE_MEASURED: "26%"

---

# Test system: U2OS
# EXPERIMENT_SUMMARY: Multiplex assay against U2OS
# Format: toxicity, cell-based
# CONDITION_INFO: human, 12 h, 1 µM, compound concentration 1 uM, replicate 1
Listing of entries alongside the reported Population Hoechst High Intensity Objects (%).
MEASURED_METRIC: Population Hoechst High Intensity Objects (%)

- STRUCTURE_SMILES_STRING: "O=C(Nc1ccc(-n2nc(-c3cccnc3)cc2C(F)(F)F)cn1)c1ccc(-c2ccccc2)c(F)c1"
  UOM: "%"
  VALUE_MEASURED: 12
- STRUCTURE_SMILES_STRING: "COCC(=O)NC/C=C/c1ccc2ncnc(Nc3ccc(Oc4ccc(C)nc4)c(C)c3)c2c1"
  UOM: "%"
  VALUE_MEASURED: 3
- STRUCTURE_SMILES_STRING: "CCc1cccc(CC)c1NC(=O)c1nn(C)c2c1CCc1cnc(Nc3ccc(N4CCN(C)CC4)cc3OC)nc1-2"
  UOM: "%"
  VALUE_MEASURED: 8
- STRUCTURE_SMILES_STRING: "COc1cc(N2CCN(C)CC2)ccc1Nc1ncc2c(n1)N(C)c1ccccc1C(=O)N2C"
  UOM: "%"
  VALUE_MEASURED: 6

---

# Test system: HEK-293T
# EXPERIMENT_SUMMARY: Multiplex assay against HEK293T
# Type: toxicity, cell-based
# CONDITION_INFO: human, 12 h, 1 µM, compound concentration 1 uM, replicate 2
MEASURED_METRIC: Population Mitotic Cells (%)

- MOLECULE: "COc1ccc(S(=O)(=O)N(CCO)c2ccccc2CN(C)C/C=C/c2ccc(Cl)cc2)cc1.O=P(O)(O)O"
  TARGET_SYSTEM: "HEK-293T"
  VALUE_MEASURED: 64
- MOLECULE: "CCn1c(=O)c(-c2ccc(-c3cncs3)cc2Cl)cc2cnc(Nc3ccc(N4CCN(C)CC4)cc3)nc21"
  TARGET_SYSTEM: "HEK-293T"
  VALUE_MEASURED: 89
- MOLECULE: "CCOc1cc(C(=O)N2CCC(N3CCN(C)CC3)CC2)ccc1Nc1ncc2c(n1)N(C1CCCC1)c1ccccc1C(=O)N2C"
  TARGET_SYSTEM: "HEK-293T"
  VALUE_MEASURED: 39
- MOLECULE: "CCc1cccc(CC)c1NC(=O)c1nn(C)c2c1CCc1cnc(Nc3ccc(C(=O)NC4CCN(C)CC4)cc3OC(F)(F)F)nc1-2"
  TARGET_SYSTEM: "HEK-293T"
  VALUE_MEASURED: 71
- MOLECULE: "Cc1ccc2nc(NCCN)c3ncc(C)n3c2c1.O=C(O)C(F)(F)F.O=C(O)C(F)(F)F"
  TARGET_SYSTEM: "HEK-293T"
  VALUE_MEASURED: 85
- MOLECULE: "COc1cccc2cc(-c3nc([C@H]4CC[C@H](C(=O)O)CC4)n4ncnc(N)c34)[nH]c12 [OSI-027]"
  TARGET_SYSTEM: "HEK-293T"
  VALUE_MEASURED: 90
- MOLECULE: "CCN1CCN(c2ccc(Nc3cc(N(C)C(=O)Nc4c(Cl)c(OC)cc(OC)c4Cl)ncn3)cc2)CC1 [INFIGRATINIB]"
  TARGET_SYSTEM: "HEK-293T"
  VALUE_MEASURED: 85
- MOLECULE: "CCc1cccc(CC)c1NC(=O)c1nn(C)c2c1CCc1cnc(Nc3ccc(N4CCN(C)CC4)cc3OC)nc1-2"
  TARGET_SYSTEM: "HEK-293T"
  VALUE_MEASURED: 80
- MOLECULE: "Cl.O=c1c2cccn2c2ccccc2n1CCCN1CCC(c2ccc(Cl)cc2)CC1"
  TARGET_SYSTEM: "HEK-293T"
  VALUE_MEASURED: 69
- MOLECULE: "COC(=N)c1nc2ccc3ncnc(Nc4ccc(OC)cc4F)c3c2s1"
  TARGET_SYSTEM: "HEK-293T"
  VALUE_MEASURED: 75
- MOLECULE: "Cc1ccc(C(=O)Nc2cccc(C(F)(F)F)c2)cc1Nc1nc(-c2cccnc2)nc2c1cnn2C"
  TARGET_SYSTEM: "HEK-293T"
  VALUE_MEASURED: 72
- MOLECULE: "O=C1N/C(=N/c2ccccc2F)S/C1=C\\c1ccc(C(=O)O)cc1"
  TARGET_SYSTEM: "HEK-293T"
  VALUE_MEASURED: 91
- MOLECULE: "Cn1nc(C(F)(F)F)cc1-c1cnc(N2CCc3cc(S(=O)(=O)Nc4c(F)cc(Cl)cc4F)cc(N4CCCC4=O)c32)nc1 [TP-020]"
  TARGET_SYSTEM: "HEK-293T"
  VALUE_MEASURED: 83
- MOLECULE: "NC(=O)c1cccc(-c2cc(Nc3ccc(OC(F)(F)F)cc3)ncn2)c1"
  TARGET_SYSTEM: "HEK-293T"
  VALUE_MEASURED: 90
- MOLECULE: "CN1CCC(=C2c3ccccc3CC(=O)c3sccc32)CC1.O=C(O)/C=C/C(=O)O [KETOTIFEN FUMARATE]"
  TARGET_SYSTEM: "HEK-293T"
  VALUE_MEASURED: 86
- MOLECULE: "O=C(Nc1ccc(-n2nc(-c3cccnc3)cc2C(F)(F)F)cn1)c1ccc(-c2ccccc2)c(F)c1 [BI 2049]"
  TARGET_SYSTEM: "HEK-293T"
  VALUE_MEASURED: 96
